Target Of Assay: GFP-tagged Plasmepsin V (PmV-GFP), P. falciparum clone DC6 (Plasmodium falciparum)
Sequence (Q8I6Z5 whole entry): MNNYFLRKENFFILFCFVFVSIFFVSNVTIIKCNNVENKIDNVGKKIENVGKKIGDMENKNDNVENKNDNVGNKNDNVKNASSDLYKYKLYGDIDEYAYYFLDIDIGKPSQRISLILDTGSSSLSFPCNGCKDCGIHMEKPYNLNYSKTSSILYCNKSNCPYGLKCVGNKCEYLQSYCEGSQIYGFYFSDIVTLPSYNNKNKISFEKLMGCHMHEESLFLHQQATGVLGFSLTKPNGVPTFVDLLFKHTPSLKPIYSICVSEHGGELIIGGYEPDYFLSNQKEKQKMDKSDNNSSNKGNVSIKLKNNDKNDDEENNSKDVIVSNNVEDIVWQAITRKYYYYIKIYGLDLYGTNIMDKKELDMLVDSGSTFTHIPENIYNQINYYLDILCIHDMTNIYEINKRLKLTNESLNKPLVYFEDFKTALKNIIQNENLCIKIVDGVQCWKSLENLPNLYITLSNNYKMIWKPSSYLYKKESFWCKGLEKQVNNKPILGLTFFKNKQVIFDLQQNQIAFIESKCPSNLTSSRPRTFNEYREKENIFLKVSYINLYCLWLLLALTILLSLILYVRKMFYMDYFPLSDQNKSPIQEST
Assay Info: 3 uM HRPII-PExEl substrate
pIC50: −log10 of the molar value. Ends that are not written are not given here.
Experimental Endpoint: pIC50

| Binder | Experimental Endpoint | Test Value |
| --- | --- | --- |
| RLLAEA (also: hydroxyethylamino (HEA) isostere in place of peptide bond Leu3-Ala4) [Compound 1 (LG20), RL[L~A]EA] | pIC50 | 9.43 |

The measured values listed here are drawn from paper PMC4643876.
